System: HT29 colon
Protocol description: NCI-60 one-dose screen, 48 h
Experimental context: 10 µM unless noted
Compounds without any hit were thinned out: in the full panel of roughly 83,000, 20% have a hit. Calls of active or inactive are those of the source. Rule for the calls: active = growth percent below 10; inactive = the rest.
Please answer using one outcome listed in Yes = active, No = inactive

// return assay outcome for COc1ccc2nc3ccc(OC)cc3c(SCCCN)c2c1
No

Continuing:
// return assay outcome for O=[N+]([O-])c1ccc(-c2nc(N3CCOCC3)c3c4c(sc3n2)CCCC4)cc1
No

// return assay outcome for Cc1ccc2c(n1)C(=O)c1[nH]c3ccccc3c1C2=O
No

// return assay outcome for C=CCc1c(O)c(C(=O)/C=C/c2ccc(Cl)cc2)c(OC)c2ccoc12
No

// return assay outcome for Cc1ccc(-c2csc(NC(=O)CN3CCN(c4cc5c(cc4F)c(=O)c(C(=O)O)cn5C4CC4)CC3)n2)cc1
Yes

// return assay outcome for N#Cc1nn(-c2cc(=O)[nH]c3ccc(Cl)cc23)c(N)c1C#N
No

// return assay outcome for CC1=C(CCC(C)N(C)Cc2ccc(OCCCN3CCCC3)cc2)C(C)(C)CCC1 (stereo not given)
Yes

// return assay outcome for CCN1CC(=O)N(/N=C2\C(=O)Nc3ccccc32)C1=S
No

// return assay outcome for CCCCC(=O)c1ccco1
No

// return assay outcome for CC[C@]12C=CCN3CC[C@@]4(c5cc(NC(=O)CCC(=O)OCc6cn(Cc7ccc(F)cc7)nn6)c(OC)cc5N(C)[C@H]4[C@@](O)(C(=O)OC)[C@@H]1OC(C)=O)[C@@H]32
No

---

Tested on: HCT-15 colon
Protocol description: NCI-60 one-dose screen, 48 h
Experimental context: 10 µM unless noted
Compounds without any hit were thinned out: in the full panel of roughly 83,000, 20% have a hit. Activity calls are given as the source filed them. How the source made its calls: active means growth percent below 10; inactive means the rest.
Please answer using one outcome listed in active, inactive

Record excerpt, results attached:
// return assay outcome for O=C1c2c(c3c4ccccc4[nH]c3c3ccc4ccccc4c23)C(=O)N1CCN1CCCCC1
inactive

// return assay outcome for Cc1nc2sc(C(=O)Nc3cccc(Cl)c3C)c(N)c2cc1C(=O)c1ccccc1
active

// return assay outcome for O=C1/C(=C/c2ccccc2Br)COc2ccc(O)c(O)c21
active

// return assay outcome for N#CC1=C(c2ccc(Cl)cc2)Nc2c(c(-c3ccc(Cl)cc3)nn2-c2ccccc2)C12C(=O)Nc1ccc(Cl)cc12 (configuration not stated)
inactive

Continuing:
// return assay outcome for CO[C@H]1/C=C(/C)CCC[C@H](C)[C@H](O)[C@@H](C)C(=O)C(C)(C)[C@@H](O)CC(=O)O[C@@H]1/C(C)=C/c1csc(C)n1
inactive

// return assay outcome for O=[N+]([O-])c1ccc(-c2nc(N3CCOCC3)c3c4c(sc3n2)CCCC4)cc1
inactive

// return assay outcome for CN1C(=O)/C(=C/c2cn(-c3ccccc3)nc2-c2ccccc2)SC1=S
inactive

// return assay outcome for CCCCNC(=O)Oc1ccc(/C(=C(/CC)Cc2ccccc2)c2ccc(OCCN3CCCCCC3)cc2)cc1
active

// return assay outcome for Cn1c(=O)c2c(nc(NC3=NS(=O)(=O)c4ccccc43)n2CC(=O)N2CCc3ccccc32)n(C)c1=O
inactive

// return assay outcome for O=S(=O)(Nc1ccc(Cl)cc1)c1ccc(-c2cnc(C3CC3)o2)cc1
inactive

Recorded values, source PubChem BioAssay (NCI).
